Assay: chemical genetic growth profiling, strain panel (AID 1159580);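 note: tested at 20 µM; growth read once vehicle control cultures reached saturation at 30 °C; lower values mean less growth of the strain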
Conditions: S. cerevisiae deletion strains, growth OD, locus YMR205C, strain PFK2 (second series)
Out of some 5,500 compounds screened, about 2,000 (36%) were called active. About 18% were inconclusive and are not listed. Cut-off read from the data, not from the text of the source: active = normalized growth mostly below about 0.91 (no sharp cut-off); inconclusive = no clear call, values can overlap the other calls; inactive = mostly above about 0.92. The list shows a part of the results.
Mark one answer only. Choices: active, inactive

1) CCCCNC(=S)N/N=C\c1cc(Cl)cc(Cl)c1O	active
2) O/N=C(/c1ccc(Cl)cc1)c1cc2ccccc2o1	inactive
3) CCOC(=O)N/N=C\c1cc(Cl)cc(Cl)c1O	active
4) O=C(NNc1ccc(F)cc1F)c1sccc1Cl	inactive
5) Cc1cc(Cl)ccc1NNC(=O)c1sccc1Cl	inactive
6) Oc1c(Cl)cc(Cl)cc1/C=N\NC(=S)Nc1cc(C(F)(F)F)cc(C(F)(F)F)c1	active
7) Cc1cc(Oc2ccc(C(F)(F)F)cc2NS(C)(=O)=O)cc(C)c1Cl	inactive
8) O=C1Nc2ccccc2/C1=C\c1c(Cl)cccc1Cl	inactive

**Query** Assay result, entry Cc1nnc2n1N=C(c1ccc(CC(C)C)cc1)C(C)S2 (configuration not stated) — outcome?
**Result** inactive

**Query** Next record, please: `Cc1ccc(NNC(=O)c2cccs2)cc1Cl`
**Result** inactive

**Query** Next: `CN(C)C=Nc1nnc(Sc2nc3c(Cl)cc(Cl)cc3s2)s1`
**Result** inactive

**Query** Repeat with `COc1ccc(/C=C2/C(=O)Nc3ccccc32)cc1`
**Result** inactive
